The reported numbers originate from the supplement of paper PMC10201428.

- System: VchCAST RNA-guided transposition machinery (E. coli BL21(DE3) host, lacZ target)
- assay-method-text: relative integration efficiency (T-LR orientation) vs wild-type transposon end (log2 (normalized fold change)); transposon end mutated: left end; higher = more efficient transposition
readout-label: relative integration efficiency (log2)
Give a plain numeric answer without units written out.

The recorded relative integration efficiency (log2) for `AATGTTGTTGATGCAACCATAAAGTGATATTTACCGACTGCCTGCCATCCGCCGCCGCACCGCAGCCCAACCATATATTGATATCTCACAAAACAACCATAAGTTGATATTTTTGTGAATCGAGTATTTCAGCAAAACTACTGCAGTAAGAA` is -3.03

Continuing:
The recorded relative integration efficiency (log2) for `AATGTTGTTGATGTGTCAACCATAAAGTGATATTTAATAATTATTTATAATCAGCAACTTAACCACAAAACAACCATATATTGATATCTCACAAAACAACCATAAGTTGATATTTTTGTGAATCGAGTATTTCAGCAAAACTACTGCAGTAA` is -2.19

###

Some sequences, each annotated with its measured relative integration efficiency (log2).
- Tested on: VchCAST RNA-guided transposition machinery (E. coli BL21(DE3) host, lacZ target)
- assay-method-text: relative integration efficiency (T-RL orientation) vs wild-type transposon end (log2 (normalized fold change)); transposon end mutated: right end (5 bp flank + 75 bp right end); higher = more efficient transposition
Give a plain numeric answer without units written out.

Please review the following examples before continuing.
The recorded relative integration efficiency (log2) for `ACATTTGTTGATACAACCATATTTACATAATTACACCCATATTAACATAATTATCACACCCATATTAACATATTGCCTCTGATCATAGTCAGACCAACATTGCTACGACCCGTATTCGCACCGACAC` is -7.03

The recorded relative integration efficiency (log2) for `ACATTTGTTGATACAACCATAAAATGATCATTACACCCATAAATTGATAATTATCCCACCCAATTTAACTATAACGCTCTGATCATAGTCAGACCAACATTGCTACGACCCGTATTCGCACCGACAC` is -1.52

The recorded relative integration efficiency (log2) for `ACATTTGTTGATACAACCATAAAATCATCATTACCCCCATAAATTGATAATTATCCCACCCCATTTAACTATAACGCTCTGATCATAGTCAGACCAACATTGCTACGACCCGTATTCGCACCGACAC` is -3.69

The recorded relative integration efficiency (log2) for `ACATTTGTTGATACAACCATAAAATGATAATTACAACCATAAAGTGATATTTATCACAACCATAAAATGATAATTACTCTGATCATAGTCAGACCAACATTGCTACGACCCGTATTCGCACCGACAC` is -0.258

The recorded relative integration efficiency (log2) for `ACATTTGTTGATACAACCATATATTGATATCTCCAACCATAAGTTGATATTTTTCAGTGGGTATTTAACTATAACGCTCTGATCATAGTCAGACCAACATTGCTACGACCCGTATTCGCACCGACAC` is -0.859

The recorded relative integration efficiency (log2) for `ACATTTGTTGATACAACCATAAAATGATAATTACACCCATAAATTGATAATTATCACACCCATAAATTGATATTTAAGCTGATCATAGTCAGACCAACATTGCTACGACCCGTATTCGCACCGACAC` is -0.000531

Continuing:
The recorded relative integration efficiency (log2) for `ACATTTGTTGATACAACCATAAAAGGATAATTCACCCCTAAATTGATAATTATCACACCCACATTTAACTATAACGCTCTGATCATAGTCAGACCAACATTGCTACGACCCGTATTCGCACCGACAC` is -4.49

The recorded relative integration efficiency (log2) for `ACATTTGTTGATACAACCATAAAATGATAATTACAACCATAAAATGATAATTATCACAACCATAAAATGATAATTACTCTGATCATAGTCAGACCAACATTGCTACGACCCGTATTCGCACCGACAC` is -0.193

The recorded relative integration efficiency (log2) for `ACATTTGTGGATACAACCATAAAATGATAATTACACCCATAAATTGATCATTATCACACCCAATTTAACTATAACGCTCTGATCATAGTCAGACCAACATTGCTACGACCCGTATTCGCACCGACAC` is -1.46

The recorded relative integration efficiency (log2) for `ACATTTGTTGATACAACCATAAAATGATAATTACACCCATAAATTGATAATTATCACACCCATAAATTGATATTGCCTCTGATCATAGTCAGCAACCATAAAATGATAATTAACCAAGCACCGACAC` is -0.283

###

- Test system: VchCAST RNA-guided transposition machinery (E. coli BL21(DE3) host, lacZ target)
- assay-method-text: relative integration efficiency (T-RL orientation) vs wild-type transposon end (log2 (normalized fold change)); transposon end mutated: right end (5 bp flank + 75 bp right end); higher = more efficient transposition
Label 1.0 when relative integration efficiency (log2) is at or above -0.8; anything below gets 0.0.

The following sequences have reported results that may help.
Please tell me: is the sequence `ACATTTGTTGATACAACCATAAAATGATAATTAATAATTATTTATAATCAGCAACTTAACACCCATAAATTGATAATTATCAACAAACGCCCGGTCGCGGTACTCTGATCATAGTCAGACCAACATT` at or over -0.8 in terms of relative integration efficiency (log2)? 0.0

Please tell me: is the sequence `ACATTTGTTGATACAACCATAAAATGATAATTACACCCATAAATTGATAATTATCACACCCATAAATTGATATTGCCTCTTCATGTGAGCCCAGGCAGTCCTGGGCATCAATTTTCAGCACCGACAC` at or over -0.8 in terms of relative integration efficiency (log2)? 1.0

Please tell me: is the sequence `ACATTTGTTGATACCACCATAAAATGGTAATTACACCCATAAATTGATAATTATCACACCCAATTTAACTATAACGCTCTGATCATAGTCAGACCAACATTGCTACGACCCGTATTCGCACCGACAC` at or over -0.8 in terms of relative integration efficiency (log2)? 0.0

Please tell me: is the sequence `ACATTTGTTGATACAACCATAAAAGGATAATTACCCCCATAAATTGATAATTATCCCACCCAATTTAACTATAACGCTCTGATCATAGTCAGACCAACATTGCTACGACCCGTATTCGCACCGACAC` at or over -0.8 in terms of relative integration efficiency (log2)? 1.0

Continuing:
Please tell me: is the sequence `ACATTTGTTGATACAACCATATAATGATAATAACACCCATAAAATGATAATTATCACACCCAATTTAACTATAACGCTCTGATCATAGTCAGACCAACATTGCTACGACCCGTATTCGCACCGACAC` at or over -0.8 in terms of relative integration efficiency (log2)? 0.0

###

- System: VchCAST RNA-guided transposition machinery (E. coli BL21(DE3) host, lacZ target)
- assay-method-text: relative integration efficiency (T-LR orientation) vs wild-type transposon end (log2 (normalized fold change)); transposon end mutated: left end; higher = more efficient transposition
readout-label: relative integration efficiency (log2)

Please review the following examples before continuing.
The recorded relative integration efficiency (log2) for `AATGTTGTTGATGCAACCATAAAGTGATATTTAATAATCAACCATATATTGATATCTCTATTTATAATCAGCAACTTAACCACAAAAACAAAACAACCATAAGTTGATATTTTTGTGAATCGAGTATTTCAGCAAAACTACTGCAGTAAGAA` is -0.761

The recorded relative integration efficiency (log2) for `AATGTTGTTGATGCAACCATAAAGTGATATTTAATAATCAACTGTATATAAATACAGTTCCACAAAACAACCATATATTGATATCTCACAAAACAACCATAAGTTGATATTTTTGTGAATCGAGTATTTCAGCAAAACTACTGCAGTAAGAA` is -5.77

The recorded relative integration efficiency (log2) for `AATGTTGTTGACAACCATAAAGTGATATTTAATAATTATTTATAATCAGCAACTTAACCACAAAACAACCATATATTGATATCTCACAAAACAACCATAAGTTGATATTTTTGTGAATCGAGTATTTCAGCAAAACTACTGCAGTAAGAAAG` is -5.1

Now, please, on to the next sequence.
The recorded relative integration efficiency (log2) for `AATGTTGTTGATGCAACCATAAAGTGATATTTAATAATTATTTATAATCAGCAACTTAACAACCATATATTGATATCTCACAAAACAACCATAAGTTGATATTTTTGTGAATCGAGTATTTCAGCAAAACTACTGCAGTAAGAAAGTTACTT` is -4.07
